- System: HeLa
- assay_name: Primary qHTS to identify gynecologic anti-cancer compounds using libraries of approved drugs and bioactive compounds (AID 1345084); further: on the % scale 0 is the no-effect control and ±100 the full control effect; nearly all actives have a fitted effect of over 55% in size
- condition_parameters: Gynecologic cancer cell panel viability, ATPlite luminescence, 48 h; series mostly up to 57.5 µM
Results filed as inconclusive are left out. Calls of active or inactive are those of the source. The call rests on the fitted dose curve; in most records, active means well fitted cell-killing curve with a large enough effect; inconclusive means small, poorly fitted or top-dose-only effect, or effect the other way; inactive means flat fitted curve, though single readings scatter.
test_readout: activity change, negative = cytotoxicity

# compound, data_value
records = [
    ("CC(=O)OC1C(CO)OC(O[C@H]2[C@H](OC(=O)[C@]34CCC(C)(C)C[C@H]3C3=CCC5[C@@]6(C)CC[C@H](O[C@@H]7O[C@H](C(=O)O)[C@@H](O)[C@H](O[C@@H]8OC[C@@H](O)[C@H](O)[C@H]8O)[C@H]7O[C@@H]7O[C@H](CO)[C@H](O)[C@H](O)[C@H]7O)[C@@](C)(C=O)C6CC[C@@]5(C)[C@]3(C)C[C@H]4O)O[C@H](C)[C@H](OC3OC(C)C(OC4OCC(O)C(O)C4O)C(O)C3O)[C@@H]2O)C(O)C1O (stereo partly drawn)", "-1.51% [at 6.55 µM] (inactive)"),
    ("CCCCOc1nc(N)c2c(n1)N(Cc1cccc(CN3CCCC3)c1)CC(=O)N2", "inactive"),
    ("CC(C)=CC[C@H]1O[C@]2(O)C([C@H]3CCC4[C@@]5(C)CC[C@H](O[C@@H]6O[C@H](CO)[C@H](O)[C@H](O[C@@H]7O[C@H](CO)[C@@H](O)[C@H](O)[C@H]7O)[C@H]6O[C@@H]6O[C@@H](C)[C@H](O)[C@@H](O)[C@H]6O)C(C)(C)C5CC[C@@]4(C)[C@]3(C)[C@H]2O)[C@@]1(C)O (stereo partly drawn)", "-4.09% [at 11.6 µM] (inactive)"),
    ("CC(=O)OC(C)C(C)(O)C(=O)O[C@@H]1CC[C@]2(C)CC(=O)C(=C(C)C)C[C@H]2[C@]1(C)OC(C)=O (stereo partly drawn)", "inactive"),
    ("CN1CCN(C(=O)c2cc3cc(Cl)ccc3[nH]2)CC1", "inactive"),
    ("C[C@@H](NC(=O)c1cc(C(=O)N[C@@H](Cc2ccccc2)[C@H](O)CNC2CC2)cc(N(C)S(C)(=O)=O)c1)c1ccccc1", "inactive"),
    ("CC1(C)CC[C@]2(C(=O)O[C@@H]3O[C@H](CO)[C@@H](O)[C@H](O)[C@H]3O)[C@H](O)C[C@]3(C)C(=CCC4[C@@]5(C)CC[C@H](O[C@@H]6OC[C@@H](O)[C@H](O)[C@H]6O)[C@@](C)(C(=O)O)C5CC[C@]43C)[C@@H]2C1 (stereo partly drawn)", "inactive"),
    ("CC12CC(c3ccoc3)OC(=O)C1CCC1(C)C2CCC(O)C1(C)O (stereo not drawn)", "inactive"),
    ("CC1(CO)CC(O)C2(C)CCC3(C)C(=CCC4C5(C=O)CCC(OC6OC(C(=O)O)C(O)C(O)C6OC6OC(C(=O)O)C(O)C(O)C6O)C(C)(C)C5CCC43C)C2C1 (stereo not drawn)", "7.21% [at 11.6 µM] (inactive)"),
    ("COc1ccc(CC(NC(C)=O)C(=O)O)cc1 (stereo not drawn)", "inactive"),
    ("COc1c2c(c(C)c3c1C(=O)OC3)OC1(C)CC(O)C34OC(OC)(CC(O)C3(C)C1C2)OC4(C)C (stereo not drawn)", "inactive"),
    ("Oc1ccccc1-c1cc(-c2ccccc2F)[nH]n1", "inactive"),
    ("C=C1C(O)CCC2(C)CC3(OC)OC(=O)C(C)=C3CC12 (stereo not drawn)", "inactive"),
    ("O=C(O)CC1CCC(c2ccc(-c3ccc(Nc4ccc(C(F)(F)F)nc4)cn3)cc2)CC1 (stereo not drawn)", "inactive"),
    ("C=C1CC[C@]2(C(=O)O[C@@H]3O[C@H](CO)[C@@H](O)[C@H](O)[C@H]3O)CC[C@]3(C)C(=CCC4[C@@]5(C)C[C@H](O)[C@@H](O[C@@H]6O[C@H](C(=O)O)[C@@H](O)[C@H](O)[C@H]6O)[C@](C)(C=O)C5CC[C@]43C)C2C1 (stereo partly drawn)", "4.56% [at 11.6 µM] (inactive)"),
    ("COc1cc([C@@H](O[C@@H]2O[C@H](CO)[C@@H](O)[C@H](O)[C@H]2O)[C@@H]2CO[C@H](c3ccc(O)c(OC)c3)[C@H]2CO)ccc1O", "inactive"),
    ("C=C[C@@]1(C)CCC2=C([C@H]1OC(C)=O)[C@H](OC(C)=O)CC1[C@](C)(C(=O)OC)CC[C@H](OC(C)=O)[C@]21C (stereo partly drawn)", "inactive"),
    ("CC12CC34CC(O)C5C(CO)(CO)CC(=O)CC5(C)C3CC1C2C4 (stereo not drawn)", "inactive"),
]
